Every entry's value here was drawn from paper PMC10397247.

targetSystem: T1, 4H429-AA
T1 chain: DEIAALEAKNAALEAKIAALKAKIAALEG
procedureText: two-hybrid library CCmax;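 also: natural log of median RNA to DNA barcode read ratio; higher means stronger binding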
assaySetup: mean of both orientations
What interaction score was measured for each of the following?
Note: the reply should be a number with no unit written.

[ask] Query interaction score for DKNAALEAKIAALKAKIAALEAENAALEG [4H3427-AA]
[reply] -1.37

[ask] Report interaction score, nothing else, for this binder: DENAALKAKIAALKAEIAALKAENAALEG [4H1867-AA]
[reply] -1.51

[ask] Item DKIAALKAENAALEAKIAALKAEIAALEG [4H2729-AA] : provide interaction score
[reply] 1.68

[ask] Output measured interaction score for this item: DKNAALKAKIAALEAEIAALEAENAALKG [4H3844-AA]
[reply] -0.665

[ask] Give the reported interaction score for this binder. DKNAALEAEIAALEAKIAALEAKNAALKG [4H3112-AA]
[reply] 0.94

[ask] Specify interaction score for DKIAALEAKNAALEAKIAALEAEIAALKG [4H2466-AA] and stop.
[reply] -0.101

[ask] Complete the entry with interaction score for DKIAALEAEIAALKAKIAALEAKNAALEG [4H2151-AA]
[reply] -1.48
